Please find below Ki measurements for Coagulation factor XI (Homo sapiens), combined from several publications.
endpointLabel: Ki (nM)

These recorded examples may help you get a feel for the data.
> print(dat)
                                   compound  measurednumber
1  COC(=O)Nc1ccc2c(c1)NC(=O)CCCC[C@H](NC(=O)c1ccc3c(c1)CCCN3)c1nc-2c[nH]1             311
2  N#Cc1cnn(-c2ccc(Cl)cc2-c2ccc([C@H]3CCCCC(=O)Nc4cnn(C(F)F)c4-c4cccc3c4)[n+]([O-])c2)c1 (single isomer, unassigned)             3.8
3  O=C1CCCCC(c2ccc(-c3cc(Cl)ccc3-n3cnnn3)c[n+]2[O-])c2cc[n+]([O-])c(c2)-c2cc(F)ccc2N1 (stereo not drawn)            0.59

A = N=C(N)c1ccc(CNC(=O)[C@H](CCC2CCNCC2)NC(=O)[C@@H](CCC2CCN(C(=O)C3CC3)CC2)NS(=O)(=O)Cc2ccccc2)cc1
B = O=C(NCc1ccc(Cl)cc1)[C@H](Cc1ccccc1)n1cnc(-c2cc(Cl)ccc2-n2cc(Cl)nn2)cc1=O
C = Cc1nnc(-c2ccc(NC(=O)[C@H](Cc3ccccc3)N3CCc4cc(CN)ccc4C3=O)cc2)[nH]1
Asked: Sort these compounds on Ki so the largest reading comes first. A complete answer lists every label in the requested sequence.
Given back: B, A, C
(B: 1220 nM, A: 650 nM, C: 254 nM)

###

The compounds below each have a reported Ki tested on Coagulation factor XI (Homo sapiens, UniProt P03951); the values come from various publications.
endpointLabel: Ki (µM)

Example entries begin here.
> print(dat)
                                   compound  measurednumber
1  O=C(O)c1ccc(NC(=O)[C@H](Cc2ccccc2)n2cnc(-c3c(-n4cc(Cl)nn4)ccc(Cl)c3F)cc2=O)cc1         0.00064
2  O=C1CCCCC(c2ccc(-c3cc(Cl)cc(F)c3-n3cnnn3)c[n+]2[O-])c2cccc(c2)-c2cc(F)ccc2N1 (single isomer, unassigned)          0.0024
3  COC(=O)CCNC(=O)[C@H](Cc1ccccc1)n1cnc(-c2cc(Cl)ccc2-n2cc(Cl)nn2)cc1=O            3.65

a = COC(=O)Nc1ccc2c(c1)NC(=O)[C@H](C)CCCC(C(=O)N1CC[C@@]3(C1)OC(=O)Nc1ccc(Cl)c(F)c13)c1nc-2c(Cl)[nH]1 (mixture of isomers)
b = COC(=O)Nc1ccc2c(c1)NC(=O)[C@H](C)CCC[C@H](NC(=O)c1ncn(-c3cccc(Cl)c3F)c1C)c1c[nH]c-2n1
Asked: From the recorded data, which exceeds the other in Ki: a or b ? Answer format: the label of the selected item.
Given back: b

###

Endpoint summary: pKi, system: Coagulation factor XI (Homo sapiens), multiple sources combined.
pKi: −log10 of the molar value.
endpointLabel: pKi

Worked examples follow.
> print(dat)
                                   compound  measurednumber
1  COC(=O)Nc1ccc(-c2cc([C@H](CC(=O)OC(C)(C)C)NC(=O)/C=C/c3cc(Cl)ccc3-n3cnnn3)n[nH]c2=O)cc1            8.26
2  O=C1CCCC[C@@H](c2ccc(-c3cc(Cl)ccc3-n3cnnn3)cn2)c2cccc(c2)-c2cc(F)ccc2N1            6.30
3  Cc1nnc(Nc2ccc3c(c2)NC(=O)[C@H](C)CCC[C@H](NC(=O)c2nnn(-c4cccc(Cl)c4F)c2C)c2cc-3ccn2)o1            8.00
4  O=C(Nc1ccc2c(c1)OCO2)[C@H](Cc1ccccc1)n1cnc(-c2cc(Cl)ccc2-n2cc(Cl)nn2)cc1=O            7.00

A = COC(=O)Nc1ccc2c(c1)NC(=O)CCCCCC(C(=O)NCC1CCN(C(=N)N)CC1)NC2=O (racemic)
B = COC(=O)Nc1ccc2c(c1)NC(=O)CCCC[C@H](c1ccc(-c3cc(Cl)ccc3C(F)(F)F)c[n+]1[O-])c1cccc-2c1 (single isomer, unassigned)
Asked: Hi there, can you help? I need to know whether A or B has lower measured pKi. Give the chosen item's label as your response.
Given back: A
